# ASSAYED_SYSTEM: T1, monomeric hCD86 ECD (papain-digested hCD86-mIg) (human, UniProt P42081 24-243)
# T1 construct: also called monomeric hCD86-mIg ligand; monomeric CD86 ECD
# T1 chain: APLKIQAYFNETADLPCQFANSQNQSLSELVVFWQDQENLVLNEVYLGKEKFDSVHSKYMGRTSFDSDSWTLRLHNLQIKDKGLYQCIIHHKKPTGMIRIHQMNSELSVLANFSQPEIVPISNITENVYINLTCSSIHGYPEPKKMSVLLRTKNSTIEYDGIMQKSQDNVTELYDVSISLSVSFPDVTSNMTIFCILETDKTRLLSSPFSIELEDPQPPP
# PROTOCOL_NOTES: SPR Biacore, fusion protein captured, monomeric hCD86 ECD in flow
MEASURED_ENDPOINT: Binding Affinity (Relative to LEA29Y-Ig)

D3-29-IgG2 (Fc fusion) MHVAQPAVVLASSRGIASFVCEYASPGKANEIRVTVLRQADSQVTEVCAMTYMKGDELTFLDDPSCTGTFSGNQVNLTIQGLRAMDTGLYICKVELMYPPPYYLGIGNGTQIYVIDPEPCPDSDERKCCVECPPCPAPPVAGPSVFLFPPKPKDTLMISRTPEVTCVVVDVSHEDPEVQFNWYVDGVEVHNAKTKPREEQFNSTFRVVSVLTVVHQDWLNGKEYKCKVSNKGLPAPIEKTISKTKGQPREPQVYTLPPSREEMTKNQVSLTCLVKGFYPSDIAVEWESNGQPENNYKTTPPMLDSDGSFFLYSKLTVDKSRWQQGNVFSCSVMHEALHNHYTQKSLSLSPG	> 5 fold

Next binder, Binding Affinity (Relative to LEA29Y-Ig) to be filled in.
IN: Entry D3-31-IgG2 (Fc fusion) MHVAQPAVVLASSRGIASFVCEYESPGKANEIRVTVLRQADSQVTEVCAMTYMKEDELTFLDDPSCTGTFSGNQVNLTIQGLRAADTGLYICKVELMYPPPYYLGIGNGTQIYVIDPEPCPDSDERKCCVECPPCPAPPVAGPSVFLFPPKPKDTLMISRTPEVTCVVVDVSHEDPEVQFNWYVDGVEVHNAKTKPREEQFNSTFRVVSVLTVVHQDWLNGKEYKCKVSNKGLPAPIEKTISKTKGQPREPQVYTLPPSREEMTKNQVSLTCLVKGFYPSDIAVEWESNGQPENNYKTTPPMLDSDGSFFLYSKLTVDKSRWQQGNVFSCSVMHEALHNHYTQKSLSLSPG has what Binding Affinity (Relative to LEA29Y-Ig)?
OUT: > 5 fold
